Documented Size across a set of molecules
Experiment: Dynamic light scattering of lipid nanoparticles (size, PDI)
Assay type: physicochemical
Details: LNP with cationic lipid CL-B
Please give a number only; it is taken to be in nm.

Known Size results, listed for orientation:
- molecule: "CCCCCCCCC(CCCCCCCC)C(=O)OCCCCCCC(=O)OCC(COP(=O)(O)OCCN(C)C)OC(=O)CCCCCCOC(=O)C(CCCCCCCC)CCCCCCCC (stereo not drawn) [Compound 18]"
  Size [nm]: 117.5
- molecule: "CCCCCCCCC(CCCCCCCC)OC(=O)CCCCCCC(=O)OCC(COP(=O)(O)OCCN(C)CCCO)OC(=O)CCCCCCC(=O)OC(CCCCCCCC)CCCCCCCC (stereo not drawn) [Compound 27]"
  Size [nm]: 123.9
- molecule: "CC(C)CCCCOC(=O)CCCCCCC(=O)OCC(COP(=O)(O)OCCN)OC(=O)CCCCCCC(=O)OCCCCC(C)C (stereo not drawn) [Compound 2]"
  Size [nm]: 97.0

INPUT: Using the record for CC(C)CCCCOC(=O)CCCCCCC(=O)OCC(COP(=O)(O)OCCN(C)C)OC(=O)CCCCCCC(=O)OCCCCC(C)C (stereo not drawn) [Compound 8] , state its measured Size.
OUTPUT: 92.3

INPUT: Using the record for CCCCCCCCCC(CCCCCCCCC)C(=O)OCC(COP(=O)(O)OCCN)OC(=O)C(CCCCCCCCC)CCCCCCCCC (stereo not drawn) [Compound 3] , state its measured Size.
OUTPUT: 116.4

INPUT: Using the record for CCCCCCCCC(CCCCCCCC)OC(=O)CCCCCCC(=O)OC[C@H](COP(=O)(O)OCCN(C)C)OC(=O)CCCCCCC(=O)OC(CCCCCCCC)CCCCCCCC [Compound 14] , state its measured Size.
OUTPUT: 137.0

====

Test: Dynamic light scattering of lipid nanoparticles (size, PDI)
Type: physicochemical
Conditions: LNP with cationic lipid CL-C
Documented PDI across a set of compounds
Could you keep your reply to the number by itself?

- compound: "CC(C)CCCCOC(=O)CCCCCCC(=O)OCC(COP(=O)(O)OCCN(C)C)OC(=O)CCCCCCC(=O)OCCCCC(C)C (stereo not drawn)"
  PDI: 0.102
- compound: "CC(C)CCCCOC(=O)CCCCCCC(=O)OCC(COP(=O)(O)OCCN)OC(=O)CCCCCCC(=O)OCCCCC(C)C (stereo not drawn)"
  PDI: 0.102
- compound: "CCCCCCCCC(CCCCCCCC)OC(=O)CCCCCCC(=O)OCC(COP(=O)(O)OCCN(C)CCCO)OC(=O)CCCCCCC(=O)OC(CCCCCCCC)CCCCCCCC (stereo not drawn)"
  PDI: 0.129
- compound: "CCCCCCCCOC(=O)CCCCCCCC(=O)OCC(COP(=O)(O)OCCN(C)C)OC(=O)CCCCCCCC(=O)OCCCCCCCC (stereo not drawn)"
  PDI: 0.099
- compound: "CCCCCCCCC(CCCCC)COC(=O)CCC(=O)OCC(COP(=O)(O)OCCN)OC(=O)CCC(=O)OCC(CCCCC)CCCCCCCC (stereo not drawn) [Compound 4]"
  PDI: 0.123
- compound: "CCCCCCCCCC(CCCCCCCCC)C(=O)OCC(COP(=O)(O)OCCN)OC(=O)C(CCCCCCCCC)CCCCCCCCC (stereo not drawn)"
  PDI: 0.038
- compound: "CCCCCCCCC(CCCCCCCC)OC(=O)CCCCCCC(=O)OC[C@H](COP(=O)(O)OCCN(C)C)OC(=O)CCCCCCC(=O)OC(CCCCCCCC)CCCCCCCC"
  PDI: 0.141
- compound: "CCCCCCCCC(CCCCC)COC(=O)CCC(=O)OCC(COP(=O)(O)OCCN)OC(=O)CCC(=O)OCC(CCCCC)CCCCCCCC (stereo not drawn) [Compound 5]"
  PDI: 0.047

Kindly review the next compound as well.
INPUT: Using the record for CCCCCCCCC(CCCCCCCC)C(=O)OCCCCCC(=O)OCC(COP(=O)(O)OCCN(C)C)OC(=O)CCCCCOC(=O)C(CCCCCCCC)CCCCCCCC (stereo not drawn) , state its measured PDI.
OUTPUT: 0.054

====

Assay: Dynamic light scattering of lipid nanoparticles (size, PDI)
Assay type: physicochemical
Conditions: LNP with cationic lipid CL-B
Procedure: Lipid nanoparticle formulations 3 were prepared by Process A at a molar ratio of 40:1.5:30:28.5 (Cationic Lipid: DMG-PEG2000: Cholesterol: Helper Lipid) with the cationic lipids and helper lipids disclosed in the tables below. The Polydispersity Index (Pdl) of lipid nanoparticles can be determined by diluting the formulation in 10% trehalose at about 0.1 mg/ml mRNA concentration and then measuring the size on Malvern zetasizer. […]
assay-readout: PDI
Could you keep your reply to the number by itself?

Known PDI results, listed for orientation:
- compound: "CCCCCCCCC(CCCCCCCC)OC(=O)CCCCCCCC(=O)OCC(COP(=O)(O)OCCN(C)C)OC(=O)CCCCCCCC(=O)OC(CCCCCCCC)CCCCCCCC (stereo not drawn)"
  PDI: 0.069
- compound: "CCCCCCCCC(CCCCCCCC)OC(=O)CCCCCCC(=O)OCC(COP(=O)(O)OCCN(C)CCO)OC(=O)CCCCCCC(=O)OC(CCCCCCCC)CCCCCCCC (stereo not drawn)"
  PDI: 0.151

Kindly review the next compound as well.
INPUT: Using the record for CCCCCCCCC(CCCCC)COC(=O)CCC(=O)OCC(COP(=O)(O)OCCN(C)C)OC(=O)CCC(=O)OCC(CCCCC)CCCCCCCC (stereo not drawn) , state its measured PDI.
OUTPUT: 0.086

====

Test: Dynamic light scattering of lipid nanoparticles (size, PDI)
Format: physicochemical
Details: LNP with cationic lipid CL-C
Size of 100 nm or higher: class 1. Under 100 nm: class 0.

- compound: "CCCCCCCCC(CCCCC)COC(=O)CCC(=O)OCC(COP(=O)(O)OCCN)OC(=O)CCC(=O)OCC(CCCCC)CCCCCCCC (stereo not drawn) [Compound 4]"
  assigned-class: "class 1"
- compound: "CCCCCCCCC(CCCCCCCC)OC(=O)CCCCCCC(=O)OCC(COP(=O)(O)OCCN)OC(=O)CCCCCCC(=O)OC(CCCCCCCC)CCCCCCCC (stereo not drawn) [Compound 6]"
  assigned-class: "class 1"
- compound: "CCCCCCCCC(CCCCCCCC)OC(=O)CCCCCC(=O)OCC(COP(=O)(O)OCCN(C)C)OC(=O)CCCCCC(=O)OC(CCCCCCCC)CCCCCCCC (stereo not drawn) [Compound 15]"
  assigned-class: "class 1"

INPUT: Is reported Size greater than or equal to 100 nm here: CCCCCCCCC(CCCCCCCC)OC(=O)CCCCCCC(=O)OCC(COP(=O)(O)OCCN(C)CCO)OC(=O)CCCCCCC(=O)OC(CCCCCCCC)CCCCCCCC (stereo not drawn) [Compound 25]
OUTPUT: class 0

INPUT: Is reported Size greater than or equal to 100 nm here: CCCCCCCCC(CCCCCCCC)OC(=O)CCCCCCC(=O)OCC(COP(=O)(O)OCC[N+](C)(C)C)OC(=O)CCCCCCC(=O)OC(CCCCCCCC)CCCCCCCC (stereo not drawn) [Compound 24]
OUTPUT: class 1

INPUT: Is reported Size greater than or equal to 100 nm here: CCCCCCCCCCC(CCCCCCCCCC)OC(=O)CCCCCCC(=O)OCC(COP(=O)(O)OCCN(C)C)OC(=O)CCCCCCC(=O)OC(CCCCCCCCCC)CCCCCCCCCC (stereo not drawn) [Compound 19]
OUTPUT: class 1

INPUT: Is reported Size greater than or equal to 100 nm here: CC(C)CCCCOC(=O)CCCCCCC(=O)OCC(COP(=O)(O)OCCN)OC(=O)CCCCCCC(=O)OCCCCC(C)C (stereo not drawn) [Compound 2]
OUTPUT: class 0

INPUT: Is reported Size greater than or equal to 100 nm here: CCCCCCCCC(CCCCC)COC(=O)CCC(=O)OCC(COP(=O)(O)OCCN(C)C)OC(=O)CCC(=O)OCC(CCCCC)CCCCCCCC (stereo not drawn) [Compound 10]
OUTPUT: class 0

====

Test: Dynamic light scattering of lipid nanoparticles (size, PDI)
Type: physicochemical
Details: LNP with cationic lipid CL-C
Description: Lipid nanoparticle formulations 3 were prepared by Process A at a molar ratio of 40:1.5:30:28.5 (Cationic Lipid: DMG-PEG2000: Cholesterol: Helper Lipid) with the cationic lipids and helper lipids disclosed in the tables below. The Polydispersity Index (Pdl) of lipid nanoparticles can be determined by diluting the formulation in 10% trehalose at about 0.1 mg/ml mRNA concentration and then measuring the size on Malvern zetasizer. […]
PDI of 0.09 or higher: Condition met. Under 0.09: Condition not met.

- compound: "CCCCCCCCC(CCCCCCCC)OC(=O)CCCCCCC(=O)OC[C@@H](COP(=O)(O)OCCN(C)C)OC(=O)CCCCCCC(=O)OC(CCCCCCCC)CCCCCCCC [Compound 13]"
  assigned-class: "Condition met"

INPUT: Is reported PDI greater than or equal to 0.09 here: CCCCCCCCOC(=O)CCCCCCCC(=O)OC(COC(=O)CCCCCCC(=O)OC(CCCCCCCC)CCCCCCCC)COP(=O)(O)OCCN(C)C (stereo not drawn) [Compound 11]
OUTPUT: Condition met

INPUT: Is reported PDI greater than or equal to 0.09 here: CCCCCCCCC(CCCCCCCC)OC(=O)CCCCCCC(=O)OCC(COP(=O)(O)OCCN(C)C)OC(=O)CCCCCCC(=O)OC(CCCCCCCC)CCCCCCCC (stereo not drawn) [Compound 12]
OUTPUT: Condition not met

INPUT: Is reported PDI greater than or equal to 0.09 here: CCCCCCCCC(CCCCCCCC)OC(=O)CCCCCCC(=O)OCC(COP(=O)(O)OCCN)OC(=O)CCCCCCC(=O)OC(CCCCCCCC)CCCCCCCC (stereo not drawn) [Compound 6]
OUTPUT: Condition not met

INPUT: Is reported PDI greater than or equal to 0.09 here: CCCCCCCCC(CCCCC)COC(=O)CCC(=O)OCC(COP(=O)(O)OCCN(C)C)OC(=O)CCC(=O)OCC(CCCCC)CCCCCCCC (stereo not drawn) [Compound 10]
OUTPUT: Condition not met

The reported measurements were obtained from patent US20260224688A1.
